Target: human LCE (Homo sapiens)
Sequence (Q9H5J4 whole entry): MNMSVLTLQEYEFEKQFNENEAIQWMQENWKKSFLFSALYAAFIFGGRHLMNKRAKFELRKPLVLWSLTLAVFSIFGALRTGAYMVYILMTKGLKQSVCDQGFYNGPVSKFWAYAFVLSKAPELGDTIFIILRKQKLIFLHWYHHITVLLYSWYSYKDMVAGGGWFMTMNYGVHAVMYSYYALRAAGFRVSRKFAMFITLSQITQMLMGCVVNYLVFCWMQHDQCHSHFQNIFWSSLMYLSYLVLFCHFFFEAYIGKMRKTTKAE
Assay: LCE enzymatic activity inhibition test
Assay type: biochemical
Settings: human LCE enzyme, palmitoyl-CoA and [14C]-malonyl-CoA as substrates, pH 6.5, 37° C. for 90 minutes
A collection of compounds and their measured pIC50
Formally, pIC50 is defined as -log10 of the concentration c, with c in mol/L.

{"Compound": "O=C1Nc2ccc(-c3cc[nH]n3)cc2C(CNS(=O)(=O)c2ccccn2)(C(F)(F)F)O1 (single isomer, unassigned)", "Result type": "pIC50", "Endpoint result": 7.80}
{"Compound": "CN1CCN(c2ccc3c(c2)C(CNC(=O)c2ccc(F)cc2)(C(F)(F)F)OC(=O)N3)C1=O (stereo not shown)", "Result type": "pIC50", "Endpoint result": 8.28}
{"Compound": "O=C1Nc2ccc(-c3ccco3)cc2C(CNC(=O)c2ccc(F)cc2)(C(F)(F)F)O1 (stereo not shown)", "Result type": "pIC50", "Endpoint result": 7.85}
{"Compound": "Cn1cc(-c2ccc3c(c2)C(CNC(=O)c2ccc(F)cc2)(C(F)(F)F)OC(=O)N3)cn1 (single isomer, unassigned)", "Result type": "pIC50", "Endpoint result": 6.92}
{"Compound": "O=C1Nc2ccc(Cl)cc2C(CCNC(=O)c2ccc(F)cc2)(C(F)(F)F)O1 (single isomer, unassigned)", "Result type": "pIC50", "Endpoint result": 7.66}

Req: What does the data say about its pIC50? Entry: O=C1Nc2ccc(Cl)cc2C(CCNS(=O)(=O)c2ccccn2)(C(F)(F)F)O1 (single isomer, unassigned)
Resp: 8.27

Req: Now consider Cc1ccn(-c2ccc3c(c2)C(CNC(=O)c2ccc(F)cc2)(C(F)(F)F)OC(=O)N3)n1 (stereo not shown) and answer again.
Resp: 8.14
